Test system: Human immunodeficiency virus 1
Test: Antiviral activity against NNRTI-resistant Human immunodeficiency virus 1
Format: functional, organism-based
Quantity Measured: pEC50
Give bare numbers, as −log10 of the molar value.

Solved entries (count: 3):
Q: Return value of pEC50 for input Cc1cn([C@H]2C[C@H](N=[N+]=[N-])[C@@H](CO)O2)c(=O)[nH]c1=O , no commentary.
Ans: 6.92

Q: Return value of pEC50 for input Cc1cn([C@H]2C[C@H](n3cc(-c4cc5ccccc5c5ccccc45)nn3)[C@@H](CO)O2)c(=O)[nH]c1=O , no commentary.
Ans: 6.00

Q: Return value of pEC50 for input Cc1cn([C@H]2C[C@H](n3cc(-c4ccc5ccccc5c4)nn3)[C@@H](CO)O2)c(=O)[nH]c1=O , no commentary.
Ans: 5.68

Please give pEC50 for each item listed below.
1. COc1ccc2cc(-c3cnnn3[C@H]3C[C@H](n4cc(C)c(=O)[nH]c4=O)O[C@@H]3CO)ccc2c1
2. Cc1cn([C@H]2C[C@H](n3nncc3COc3ccc4ccccc4c3)[C@@H](CO)O2)c(=O)[nH]c1=O
3. Cc1cn([C@H]2C[C@H](n3nncc3-c3cccc4ccccc34)[C@@H](CO)O2)c(=O)[nH]c1=O

Ans:
5.74
5.62
6.22

###

Tested on: CEM-SS
Assay: Cytotoxicity against human CEM-SS cells assessed as cell viability at 10 uM after 6 days by MTS assay relative to control
Type: cell-based
Details: 144 h
Quantity Measured: Activity (%)
Numbers only, in %.

Solved entries (count: 4):
Q: Return value of Activity for input Cc1cn([C@H]2C[C@H](n3nncc3C3(O)c4ccccc4-c4ccccc43)[C@@H](CO)O2)c(=O)[nH]c1=O , no commentary.
Ans: 97

Q: Return value of Activity for input COc1ccc2cc(OCc3cn([C@H]4C[C@H](n5cc(C)c(=O)[nH]c5=O)O[C@@H]4CO)nn3)ccc2c1 , no commentary.
Ans: 100

Q: Return value of Activity for input Cc1cn([C@H]2C[C@H](n3cc(-c4ccc(Cl)cc4)nn3)[C@@H](CO)O2)c(=O)[nH]c1=O , no commentary.
Ans: 100

Q: Return value of Activity for input Cc1cn([C@H]2C[C@H](n3cc(-c4ccnc5ccccc45)nn3)[C@@H](CO)O2)c(=O)[nH]c1=O , no commentary.
Ans: 100

Please give Activity for each item listed below.
1. COC(=O)C(Cc1ccc(OCc2cn([C@H]3C[C@H](n4cc(C)c(=O)[nH]c4=O)O[C@@H]3CO)nn2)cc1)NC(=O)OC(C)(C)C (stereo partly specified)
2. Cc1cn([C@H]2C[C@H](n3cc(C4(O)c5ccccc5-c5ccccc54)nn3)[C@@H](CO)O2)c(=O)[nH]c1=O

Ans:
99
100

###

Give measured IC50 for each item. Keep answers brief.
Target: Human immunodeficiency virus type 1 reverse transcriptase (Human immunodeficiency virus 1)
Answers are plain numbers, in µM.

Q: Return value of IC50 for input Cc1cn([C@H]2C[C@H](n3nncc3-c3cccc4ccccc34)[C@@H](COP(=O)(O)OP(=O)(O)OP(=O)(O)O)O2)c(=O)[nH]c1=O , no commentary.
Ans: 3.7

Now look at this entry.
Q: Return value of IC50 for input Cc1cn([C@H]2C[C@H](n3nncc3-c3cc4ccccc4c4ccccc34)[C@@H](COP(=O)(O)OP(=O)(O)OP(=O)(O)O)O2)c(=O)[nH]c1=O , no commentary.
Ans: 11.8

###

Give measured selectivity ratio for each item. Keep answers brief.
Test: Therapeutic index, ratio of CC50 for human CEM-SS cells to EC50 for Human immunodeficiency virus 1 3B
Format: cell-based
Details: read-out: Ratio CC50/EC50
Answers are plain numbers.

Solved entries (count: 2):
Q: Return value of selectivity ratio for input Cc1cn([C@H]2C[C@H](n3nncc3COc3ccc4ccccc4c3)[C@@H](CO)O2)c(=O)[nH]c1=O , no commentary.
Ans: 37

Q: Return value of selectivity ratio for input Cc1cn([C@H]2C[C@H](n3nncc3-c3cccc4ccccc34)[C@@H](CO)O2)c(=O)[nH]c1=O , no commentary.
Ans: 910

Now look at this entry.
Q: Return value of selectivity ratio for input Cc1cn([C@H]2C[C@H](n3nncc3-c3cc4ccccc4c4ccccc34)[C@@H](CO)O2)c(=O)[nH]c1=O , no commentary.
Ans: 210

###

Give measured Ratio EC50 for each item. Keep answers brief.
Tested on: Human immunodeficiency virus 1
Assay: Ratio of EC50 for NNRTI-resistant Human immunodeficiency virus 1 to EC50 for wild type Human immunodeficiency virus 1 expressing p24
Type: functional
One number for each entry.

Solved entries (count: 3):
Q: For Human immunodeficiency virus 1, give Ratio EC50 of the listed compound: Cc1cn([C@H]2C[C@H](n3cc(-c4cc5ccccc5c5ccccc45)nn3)[C@@H](CO)O2)c(=O)[nH]c1=O
Ans: 0.2

Q: For Human immunodeficiency virus 1, give Ratio EC50 of the listed compound: Cc1cn([C@H]2C[C@H](n3nncc3-c3cccc4ccccc34)[C@@H](CO)O2)c(=O)[nH]c1=O
Ans: 0.6

Q: For Human immunodeficiency virus 1, give Ratio EC50 of the listed compound: COc1ccc2cc(-c3cnnn3[C@H]3C[C@H](n4cc(C)c(=O)[nH]c4=O)O[C@@H]3CO)ccc2c1
Ans: 0.4

Now look at this entry.
Q: For Human immunodeficiency virus 1, give Ratio EC50 of the listed compound: Cc1cn([C@H]2C[C@H](n3cc(-c4ccc5ccccc5c4)nn3)[C@@H](CO)O2)c(=O)[nH]c1=O
Ans: 0.3

###

System: CEM-SS
Experiment: Cytotoxicity against human CEM-SS cells assessed as cell viability at 10 uM after 6 days by MTS assay relative to control
Format: cell-based
Details: 144 h
Give measured Activity for each item. Keep answers brief.
Answers are plain numbers, in %.

Solved entries (count: 8):
Q: Return value of Activity for input Cc1cn([C@H]2C[C@H](n3nncc3-c3ccccc3)[C@@H](CO)O2)c(=O)[nH]c1=O , no commentary.
Ans: 100

Q: Return value of Activity for input Cc1cn([C@H]2C[C@H](n3cc(-c4ccc(Cl)c(Cl)c4)nn3)[C@@H](CO)O2)c(=O)[nH]c1=O , no commentary.
Ans: 100

Q: Return value of Activity for input Cc1cn([C@H]2C[C@H](n3cc(-c4ccc(Oc5ccccc5)cc4)nn3)[C@@H](CO)O2)c(=O)[nH]c1=O , no commentary.
Ans: 100

Q: Return value of Activity for input Cc1cn([C@H]2C[C@H](n3cc(COc4ccc5ccccc5c4)nn3)[C@@H](CO)O2)c(=O)[nH]c1=O , no commentary.
Ans: 100

Q: Return value of Activity for input Cc1cn([C@H]2C[C@H](n3cc(-c4ccc(-c5ccccc5)cc4)nn3)[C@@H](CO)O2)c(=O)[nH]c1=O , no commentary.
Ans: 88

Q: Return value of Activity for input Cc1cn([C@H]2C[C@H](n3cc(COc4ccccc4)nn3)[C@@H](CO)O2)c(=O)[nH]c1=O , no commentary.
Ans: 85

Q: Return value of Activity for input Cc1cn([C@H]2C[C@H](n3nncc3-c3ccnc4ccccc34)[C@@H](CO)O2)c(=O)[nH]c1=O , no commentary.
Ans: 94

Q: Return value of Activity for input Cc1cn([C@H]2C[C@H](n3cc(-c4ccc5ccccc5c4)nn3)[C@@H](CO)O2)c(=O)[nH]c1=O , no commentary.
Ans: 98

Please give Activity for each item listed below.
1. Cc1cn([C@H]2C[C@H](n3nncc3C3CCCCC3)[C@@H](CO)O2)c(=O)[nH]c1=O
2. Cc1cn([C@H]2C[C@H](n3nncc3-c3ccc(Cl)c(Cl)c3)[C@@H](CO)O2)c(=O)[nH]c1=O
3. COc1ccc2cc(-c3cn([C@H]4C[C@H](n5cc(C)c(=O)[nH]c5=O)O[C@@H]4CO)nn3)ccc2c1
4. COc1ccc2ccc(OCc3cnnn3[C@H]3C[C@H](n4cc(C)c(=O)[nH]c4=O)O[C@@H]3CO)cc2c1
5. Cc1cn([C@H]2C[C@H](n3nncc3COc3ccc4ccccc4c3)[C@@H](CO)O2)c(=O)[nH]c1=O
6. COC(=O)C(Cc1ccc(OCc2cnnn2[C@H]2C[C@H](n3cc(C)c(=O)[nH]c3=O)O[C@@H]2CO)cc1)NC(=O)OC(C)(C)C (some centres not stated)

Ans:
[88, 100, 95, 99, 95, 90]

Please give Activity for each item listed below.
1. Cc1cn([C@H]2C[C@H](n3nncc3-c3cccc4ccccc34)[C@@H](CO)O2)c(=O)[nH]c1=O
2. COc1ccc2cc(-c3cnnn3[C@H]3C[C@H](n4cc(C)c(=O)[nH]c4=O)O[C@@H]3CO)ccc2c1
3. Cc1cn([C@H]2C[C@H](n3cc(C4CCCCC4)nn3)[C@@H](CO)O2)c(=O)[nH]c1=O

Ans:
100
100
100

Please give Activity for each item listed below.
1. Cc1cn([C@H]2C[C@H](n3nncc3-c3ccc(Oc4ccccc4)cc3)[C@@H](CO)O2)c(=O)[nH]c1=O
2. COc1ccc2cc(OCc3cnnn3[C@H]3C[C@H](n4cc(C)c(=O)[nH]c4=O)O[C@@H]3CO)ccc2c1
3. Cc1cn([C@H]2C[C@H](n3cc(-c4ccccc4)nn3)[C@@H](CO)O2)c(=O)[nH]c1=O

Ans:
97
100
100

Recorded values, source ChEMBL document CHEMBL3085754.
